- studySystem: SOS1 (Homo sapiens)
- Construct: SOS1 (Cytoskeleton Inc., Cat. CS-GE02); purchased Cytoskeleton Inc. CS-GE02
- Sequence (Q07889 564-1049 limits assumed): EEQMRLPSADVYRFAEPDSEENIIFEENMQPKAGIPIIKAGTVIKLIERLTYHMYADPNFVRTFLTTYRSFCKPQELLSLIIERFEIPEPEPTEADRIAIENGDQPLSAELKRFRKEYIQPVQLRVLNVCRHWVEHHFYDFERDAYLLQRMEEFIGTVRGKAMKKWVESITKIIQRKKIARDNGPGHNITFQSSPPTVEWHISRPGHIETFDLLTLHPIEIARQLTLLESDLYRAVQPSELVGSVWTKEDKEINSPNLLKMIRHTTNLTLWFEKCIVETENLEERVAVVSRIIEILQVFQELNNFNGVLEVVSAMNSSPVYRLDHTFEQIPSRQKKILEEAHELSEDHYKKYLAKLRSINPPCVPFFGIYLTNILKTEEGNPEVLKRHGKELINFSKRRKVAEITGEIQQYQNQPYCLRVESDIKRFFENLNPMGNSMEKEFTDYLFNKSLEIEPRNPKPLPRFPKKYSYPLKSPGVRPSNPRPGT
- testMethodNotes: Bodipy-FL-GTP Association Assay (SOS1-mediated exchange of KRAS-4B:GDP to KRAS-4B:GTP)
- Assay type: biochemical
- statedConditions: SOS1-mediated BODIPY FL GTP exchange on KRAS-4B, 22° C.
Listing of recorded IC50 by entry.

Here is how some molecules turned out for IC50.
| molecule | IC50 |
| --- | --- |
| Cc1nc2c(c(N[C@H](C)c3cc(N)cc(C(F)(F)F)c3)n1)CN(C(=O)N1CCOCC1)C2 [Example 4] | < 1000 nM |
| C[C@@H](Nc1nc(Cl)nc2c1CCN(C(=O)C1CCOC1)CC2)c1cc(N)cc(C(F)(F)F)c1 (stereo partly shown) [Example 7] | 1000 to 5000 nM |
| C[C@@H](Nc1nc(Cl)nc2c1CN([C@H]1CC[C@@H](O)CC1)C2)c1cc(N)cc(C(F)(F)F)c1 [Example 8] | > 5000 nM |

Attention now turns to another entry.
// IC50 lookup, key: C[C@@H](Nc1nc(Cl)nc2c1CN([C@H]1CC[C@H](C(=O)N(C)C)CC1)C2)c1cc(N)cc(C(F)(F)F)c1 [Example 19]
1000 to 5000 nM

###

- Tested on: PC-9 cells (EGFR Ex19Del)
- testMethodNotes: Potency Assay: pERK (SOS1 pERK IC50 Assay, AlphaLISA SureFire Ultra p-ERK1/2)
- Assay type: cell-based
- statedConditions: Homo sapiens; PC-9 cells (EGFR Ex19Del), 1 hour incubation, AlphaLISA p-ERK1/2; read-out: SOS1 pERK IC50
Listing of recorded IC50 by entry.

// IC50 lookup, key: C[C@@H](Nc1nc(Cl)nc2c1CN(S(=O)(=O)C1CC1)CC2)c1cc(N)cc(C(F)(F)F)c1
< 1 µM

// IC50 lookup, key: C[C@@H](Nc1nc(Cl)nc2c1CN(C(=O)N1CCNCC1)C2)c1cccc(C(F)(F)F)c1
< 1 µM

// IC50 lookup, key: C[C@@H](Nc1nc(Cl)nc2c1CN(C(=O)C13CC(O)(C1)C3)CC2)c1cc(N)cc(C(F)(F)F)c1
> 1 µM

###

Listing of recorded Kd by entry.
- studySystem: SOS1 catalytic domain (residues 564-1049) (Homo sapiens)
- Sequence (Q07889 564-1049): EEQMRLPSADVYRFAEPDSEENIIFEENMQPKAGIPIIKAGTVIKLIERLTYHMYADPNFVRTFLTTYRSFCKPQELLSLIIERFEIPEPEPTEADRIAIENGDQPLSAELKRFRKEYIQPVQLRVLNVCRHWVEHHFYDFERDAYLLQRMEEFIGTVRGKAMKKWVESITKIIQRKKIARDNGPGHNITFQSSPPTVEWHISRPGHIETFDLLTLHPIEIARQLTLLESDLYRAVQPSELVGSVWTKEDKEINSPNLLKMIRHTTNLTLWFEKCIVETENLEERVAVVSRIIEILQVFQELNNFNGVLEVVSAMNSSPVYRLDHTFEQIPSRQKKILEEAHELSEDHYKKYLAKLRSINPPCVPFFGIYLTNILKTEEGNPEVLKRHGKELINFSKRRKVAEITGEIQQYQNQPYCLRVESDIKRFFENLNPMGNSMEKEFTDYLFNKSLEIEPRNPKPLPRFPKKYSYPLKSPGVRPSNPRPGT

Here is how some compounds turned out for Kd.
| compound | result |
| --- | --- |
| C[C@@H](Nc1nc(Cl)nc2c1CN(C(=O)c1nccnn1)CC2)c1cc(N)cc(C(F)(F)F)c1 | > 400 nM |
| COC1(C(=O)N2Cc3nc(Cl)nc(N[C@H](C)c4cccc(C(F)F)c4F)c3C2)CCN(CC(F)(F)F)CC1 | < 400 nM |
| C[C@@H](Nc1nc(Cl)nc2c1CN(C(=O)N1CCOC(c3ccncc3)C1)C2)c1cc(N)cc(C(F)(F)F)c1 (stereo partly shown) | < 400 nM |
| C[C@@H](Nc1nc(CN2CCOCC2)nc2c1CN(C(=O)N1CCOCC1)C2)c1cc(N)cc(C(F)(F)F)c1 | > 400 nM |
| C[C@@H](Nc1nc(Cl)nc2c1CN(C(=O)C(C)(C)C)C2)c1cc(N)cc(C(F)(F)F)c1 | < 400 nM |

// Kd lookup, key: C[C@@H]1COC[C@H](C)N1C(=O)N1Cc2nc(Cl)nc(N[C@H](C)c3cc(N)cc(C(F)(F)F)c3)c2C1
< 400 nM

// Kd lookup, key: COC1(C(=O)N2Cc3nc(C(N)=O)nc(N[C@H](C)c4cccc(C(F)F)c4F)c3C2)CCOCC1
< 400 nM

###

- Test system: PC-9 cells (EGFR Ex19Del)
- testMethodNotes: Potency Assay: pERK (SOS1 pERK IC50 Assay, AlphaLISA SureFire Ultra p-ERK1/2)
- Format: cell-based
- statedConditions: Homo sapiens; PC-9 cells (EGFR Ex19Del), 1 hour incubation, AlphaLISA p-ERK1/2; read-out: SOS1 pERK IC50
resultType: IC50

Here is how some compounds turned out for IC50.
| compound | studySystem | IC50 |
| --- | --- | --- |
| C[C@@H](Nc1nc(Cl)nc2c1C[C@H](N1CCOCC1)CC2)c1cccc(C(F)(F)CO)c1 | PC-9 cells (EGFR Ex19Del) | < 1 µM |
| C[C@@H](Nc1nc(Cl)nc2c1CN(C(=O)N1C[C@H]3C[C@@H]1CN3C)C2)c1cccc(C(F)F)c1F | PC-9 cells (EGFR Ex19Del) | < 1 µM |
| Cc1nc2c(c(N[C@H](C)c3cc(N)cc(C(F)(F)F)c3)n1)CN(S(=O)(=O)N1CCN(C)CC1)C2 | PC-9 cells (EGFR Ex19Del) | < 1 µM |
| C[C@@H](Nc1nc(Cl)nc2c1CN(C(=O)N1CCCNCC1)C2)c1cccc(C(F)F)c1F | PC-9 cells (EGFR Ex19Del) | < 1 µM |
| CC(Nc1nc(Cl)nc2c1CN(C(=O)N1CCOCC1)C2)c1cccc(C(F)(F)CO)c1Cl (stereo not drawn) | PC-9 cells (EGFR Ex19Del) | < 1 µM |

Which measured IC50 belongs to CNCc1nc2c(c(N[C@H](C)c3cc(N)cc(C(F)(F)F)c3)n1)CN(C(=O)N1CCOCC1)C2 , tested on PC-9 cells (EGFR Ex19Del)?
> 1 µM

Which measured IC50 belongs to C[C@@H](Nc1nc(Cl)nc2c1CN(C1CCOCC1)CC2)c1cc(N)cc(C(F)(F)F)c1 , tested on PC-9 cells (EGFR Ex19Del)?
< 1 µM

Which measured IC50 belongs to COC1(C(=O)N2Cc3nc(Cl)nc(N[C@H](C)c4cccc(C(F)(F)CO)c4)c3C2)COC1 , tested on PC-9 cells (EGFR Ex19Del)?
< 1 µM

Which measured IC50 belongs to CC(Nc1nc(Cl)nc2c1CN(C(=O)N1CCOCC1)C2)c1cccc2c1C[C@H](CO)C2 (stereo in doubt) , tested on PC-9 cells (EGFR Ex19Del)?
> 1 µM

Which measured IC50 belongs to C[C@@H](Nc1nc(Cl)nc2c1CN(C(=O)c1cccc(Cl)n1)C2)c1cc(N)cc(C(F)(F)F)c1 , tested on PC-9 cells (EGFR Ex19Del)?
< 1 µM

Which measured IC50 belongs to CNc1nc2c(c(N[C@H](C)c3cccc(C(F)F)c3F)n1)CN(C(=O)N1CCOCC1)C2 , tested on PC-9 cells (EGFR Ex19Del)?
> 1 µM

Which measured IC50 belongs to C[C@@H](Nc1nc(Cl)nc2c1CN(C(=O)C1CC1)CC2)c1cc(N)cc(C(F)(F)F)c1 , tested on PC-9 cells (EGFR Ex19Del)?
< 1 µM

Which measured IC50 belongs to C[C@@H](Nc1nc(Cl)nc2c1CN(C(=O)C1CNC1)C2)c1cc(N)cc(C(F)(F)F)c1 , tested on PC-9 cells (EGFR Ex19Del)?
> 1 µM

Which measured IC50 belongs to C[C@@H](Nc1nc(Cl)nc2c1CN(C(=O)N1CCOCC1)C2)c1cccc(C(C)(F)F)c1 , tested on PC-9 cells (EGFR Ex19Del)?
> 1 µM

Which measured IC50 belongs to CC(Nc1nc(Cl)nc2c1CN(C(=O)N1CCOCC1)C2)c1cc(N)c(F)c(C(F)(F)F)c1 (stereo not drawn) , tested on PC-9 cells (EGFR Ex19Del)?
< 1 µM

Which measured IC50 belongs to C[C@@H](Nc1nc(Cl)nc2c1CC(N1CCOCC1)CC2)c1cccc(C(F)(F)F)c1 (stereo partly drawn) , tested on PC-9 cells (EGFR Ex19Del)?
> 1 µM

Which measured IC50 belongs to CC(=O)N1CCN(C(=O)N2Cc3nc(Cl)nc(N[C@H](C)c4cccc(C(F)F)c4F)c3C2)CC1 , tested on PC-9 cells (EGFR Ex19Del)?
< 1 µM
